tested-on: Epidermal growth factor receptor (Homo sapiens)
Sequence (P00533 whole entry): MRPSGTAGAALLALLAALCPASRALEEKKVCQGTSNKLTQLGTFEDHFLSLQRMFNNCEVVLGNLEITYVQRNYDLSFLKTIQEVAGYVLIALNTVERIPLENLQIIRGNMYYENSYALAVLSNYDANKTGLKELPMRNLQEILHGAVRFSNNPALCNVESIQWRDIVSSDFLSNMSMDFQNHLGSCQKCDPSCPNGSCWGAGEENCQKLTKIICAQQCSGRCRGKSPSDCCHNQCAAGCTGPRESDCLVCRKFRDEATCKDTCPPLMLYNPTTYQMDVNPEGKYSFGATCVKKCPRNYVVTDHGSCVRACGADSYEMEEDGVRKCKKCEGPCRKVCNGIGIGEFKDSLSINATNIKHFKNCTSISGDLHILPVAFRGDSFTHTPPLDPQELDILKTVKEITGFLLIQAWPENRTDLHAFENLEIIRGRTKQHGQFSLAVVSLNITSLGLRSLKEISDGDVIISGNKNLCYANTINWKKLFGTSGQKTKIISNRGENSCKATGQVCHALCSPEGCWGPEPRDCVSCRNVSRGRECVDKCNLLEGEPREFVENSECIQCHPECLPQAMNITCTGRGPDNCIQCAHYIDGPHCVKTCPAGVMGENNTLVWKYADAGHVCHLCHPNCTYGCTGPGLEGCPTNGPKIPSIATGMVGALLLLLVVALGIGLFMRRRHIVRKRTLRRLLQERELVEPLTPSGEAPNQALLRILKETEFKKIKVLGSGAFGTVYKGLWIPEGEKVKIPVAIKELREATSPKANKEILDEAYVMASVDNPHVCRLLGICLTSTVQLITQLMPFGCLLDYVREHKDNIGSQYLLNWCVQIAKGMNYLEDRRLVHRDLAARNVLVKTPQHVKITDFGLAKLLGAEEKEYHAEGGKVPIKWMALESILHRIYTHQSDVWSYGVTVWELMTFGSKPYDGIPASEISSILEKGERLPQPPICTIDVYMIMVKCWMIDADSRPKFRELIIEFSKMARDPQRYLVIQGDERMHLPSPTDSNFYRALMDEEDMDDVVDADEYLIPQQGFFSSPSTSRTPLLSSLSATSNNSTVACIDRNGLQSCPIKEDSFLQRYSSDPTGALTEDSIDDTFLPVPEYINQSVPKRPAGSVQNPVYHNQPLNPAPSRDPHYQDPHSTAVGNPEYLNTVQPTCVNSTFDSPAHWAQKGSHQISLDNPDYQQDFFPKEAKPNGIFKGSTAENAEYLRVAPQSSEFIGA
Readings of IC50 for the listed molecules
// return numeric value only (unit: nM, not printed)

As a guide, the following entries are already answered.
[[record]]
item_smiles = "Nc1ncnc(Nc2ccc3c(cnn3Cc3cccc(F)c3)c2)c1/C=N/N1CCOCC1"
measurement = 16

[[record]]
item_smiles = "CN1CCN(/N=C/c2c(N)ncnc2Nc2ccc3c(cnn3Cc3cccc(F)c3)c2)CC1"
measurement = 16

[[record]]
item_smiles = "CN(C)/N=C/c1c(N)ncnc1Nc1ccc2c(cnn2Cc2cccc(F)c2)c1"
measurement = 8


Proceeding to the next molecule to report its IC50.
Ask: Provide Epidermal growth factor receptor (Homo sapiens) IC50 reading for COc1ccc(/N=C/c2c(N)ncnc2Nc2ccc3c(cnn3Cc3cccc(F)c3)c2)cc1 .
Result: 49

----------
System: HeLa
test-protocol: Antiproliferative activity against human HeLa cells
Assay type: functional, cell-based
pIC50: −log10 of the molar value.
measurement-name: pIC50

As a guide, the following entries are already answered.
[[record]]
item_smiles = "Nc1ncnc(Nc2ccc3c(cnn3Cc3cccc(F)c3)c2)c1/C=N/N1CCCCC1"
tested_on = "HeLa"
measurement = "< 5.00"

[[record]]
item_smiles = "CN(C)/N=C/c1c(N)ncnc1Nc1ccc2c(cnn2Cc2cccc(F)c2)c1"
tested_on = "HeLa"
measurement = "< 4.00"

[[record]]
item_smiles = "Nc1ncnc(Nc2ccc3c(cnn3Cc3cccc(F)c3)c2)c1/C=N/N1CCN(CCO)CC1"
tested_on = "HeLa"
measurement = "< 4.00"


Ask: Recall and state the measured pIC50 for Nc1ncnc(Nc2ccc3c(cnn3Cc3cccc(F)c3)c2)c1/C=N/N1CCOCC1 .
Result: < 4.00

----------
tested-on: Receptor tyrosine-protein kinase erbB-2 (Homo sapiens, UniProt P04626)
Sequence (P04626 whole entry): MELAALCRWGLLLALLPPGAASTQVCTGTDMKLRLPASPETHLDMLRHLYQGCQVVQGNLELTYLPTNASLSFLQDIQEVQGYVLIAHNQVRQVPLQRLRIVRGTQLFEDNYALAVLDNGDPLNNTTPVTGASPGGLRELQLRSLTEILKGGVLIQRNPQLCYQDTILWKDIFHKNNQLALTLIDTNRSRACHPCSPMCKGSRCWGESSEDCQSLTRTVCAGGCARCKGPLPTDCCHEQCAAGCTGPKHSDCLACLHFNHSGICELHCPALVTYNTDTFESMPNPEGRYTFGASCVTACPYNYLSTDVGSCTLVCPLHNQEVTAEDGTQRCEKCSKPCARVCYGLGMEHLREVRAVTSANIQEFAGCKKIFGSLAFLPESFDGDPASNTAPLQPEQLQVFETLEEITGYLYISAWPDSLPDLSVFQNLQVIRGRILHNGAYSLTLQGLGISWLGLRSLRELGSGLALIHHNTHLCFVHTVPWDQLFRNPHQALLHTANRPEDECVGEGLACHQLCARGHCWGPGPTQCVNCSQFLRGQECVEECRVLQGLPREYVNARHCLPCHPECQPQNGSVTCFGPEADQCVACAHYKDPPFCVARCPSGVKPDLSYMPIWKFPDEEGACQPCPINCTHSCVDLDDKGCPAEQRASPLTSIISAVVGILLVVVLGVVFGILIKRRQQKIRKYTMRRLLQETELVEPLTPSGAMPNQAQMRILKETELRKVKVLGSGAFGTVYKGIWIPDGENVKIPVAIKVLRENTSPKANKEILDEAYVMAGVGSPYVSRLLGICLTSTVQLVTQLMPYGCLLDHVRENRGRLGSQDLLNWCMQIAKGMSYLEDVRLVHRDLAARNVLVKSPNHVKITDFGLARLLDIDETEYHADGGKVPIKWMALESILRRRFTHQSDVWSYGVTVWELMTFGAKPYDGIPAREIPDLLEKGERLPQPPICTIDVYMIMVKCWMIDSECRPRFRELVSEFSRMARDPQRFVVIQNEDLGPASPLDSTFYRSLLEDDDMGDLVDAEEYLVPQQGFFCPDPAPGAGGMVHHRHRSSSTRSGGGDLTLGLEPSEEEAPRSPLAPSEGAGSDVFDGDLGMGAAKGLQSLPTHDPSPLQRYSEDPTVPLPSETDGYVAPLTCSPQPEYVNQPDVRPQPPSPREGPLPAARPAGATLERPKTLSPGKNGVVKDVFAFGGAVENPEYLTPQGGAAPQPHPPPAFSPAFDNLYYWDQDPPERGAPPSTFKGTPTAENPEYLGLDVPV
test-protocol: Inhibition of human ErbB2
measurement-name: pIC50
# pIC50: negative log10 of molar concentration; output just the value

As a guide, the following entries are already answered.
[[record]]
item_smiles = "CN/N=C/c1c(N)ncnc1Nc1ccc2c(cnn2Cc2cccc(F)c2)c1"
measurement = 7.08

[[record]]
item_smiles = "Nc1ncnc(Nc2ccc3c(cnn3Cc3cccc(F)c3)c2)c1/C=N/N1CCOCC1"
measurement = 8.15

[[record]]
item_smiles = "Nc1ncnc(Nc2ccc3c(cnn3Cc3cccc(F)c3)c2)c1/C=N/NCC(F)(F)F"
measurement = 7.70

[[record]]
item_smiles = "CN(C)/N=C/c1c(N)ncnc1Nc1ccc2c(cnn2Cc2cccc(F)c2)c1"
measurement = 8.70

[[record]]
item_smiles = "COc1ccc(/N=C/c2c(N)ncnc2Nc2ccc3c(cnn3Cc3cccc(F)c3)c2)cc1"
measurement = 6.93

[[record]]
item_smiles = "COC[C@H]1CCCN1/N=C/c1c(N)ncnc1Nc1ccc2c(cnn2Cc2cccc(F)c2)c1"
measurement = 7.14


Proceeding to the next molecule to report its pIC50.
Ask: Provide Receptor tyrosine-protein kinase erbB-2 (Homo sapiens, UniProt P04626) pIC50 reading for Nc1ncnc(Nc2ccc3c(cnn3Cc3cccc(F)c3)c2)c1/C=N/N1CCCCC1 .
Result: 7.74

----------
test-protocol: Plasma concentration in Sprague-Dawley rat at 10 mg/kg, po administered in 10% solutol in D5W after 4 hrs
Assay type: ADME, organism-based
Set-up: dose 10 mg/kg, route oral
measurement-name: concentration at 4 h (ng/mL)
// return numeric value only (unit: ng/mL, not printed)

Ask: Recall and state the measured concentration at 4 h for CN(C)/N=C/c1c(N)ncnc1Nc1ccc2c(cnn2Cc2cccc(F)c2)c1 .
Result: 4.6

----------
test-protocol: Plasma concentration in Sprague-Dawley rat at 10 mg/kg, po administered in 10% solutol in D5W after 1 hr
Format: ADME, organism-based
Set-up: dose 10 mg/kg, route oral
measurement-name: concentration at 1 h (ng/mL)
// return numeric value only (unit: ng/mL, not printed)

Ask: Recall and state the measured concentration at 1 h for CN(C)/N=C/c1c(N)ncnc1Nc1ccc2c(cnn2Cc2cccc(F)c2)c1 .
Result: 6.3

----------
tested-on: UniProt:P04626
test-protocol: Inhibition of human ErbB2
measurement-name: pIC50
# pIC50: negative log10 of molar concentration; output just the value

As a guide, the following entries are already answered.
[[record]]
item_smiles = "CN1CCN(/N=C/c2c(N)ncnc2Nc2ccc3c(cnn3Cc3cccc(F)c3)c2)CC1"
tested_on = "UniProt:P04626"
measurement_name = "pIC50"
measurement = 8.10

[[record]]
item_smiles = "COC[C@@H]1CCCN1/N=C/c1c(N)ncnc1Nc1ccc2c(cnn2Cc2cccc(F)c2)c1"
tested_on = "UniProt:P04626"
measurement_name = "pIC50"
measurement = 7.41


Ask: Recall and state the measured pIC50 for Nc1ncnc(Nc2ccc3c(cnn3Cc3cccc(F)c3)c2)c1/C=N/N1CCN(CCO)CC1 .
Result: 8.10
